Measured CI (Combination Index) accompanies every entry in the list below.
Test system: RPMI-8226 Multiple Myeloma cell line
Procedure summary: DIMSCAN cytotoxicity, fenretinide + L-threo-sphinganines 3:1 (Example B2)
Format: cell-based, human
Setup conditions: 4-HPR 6 μM + L-threo-sphinganine 2 μM, 96 h
Quantity kind: CI (Combination Index)

Molecule	Numeric readout
CCCCCCCCCCCCCCCCC[C@H](O)[C@@H](N)CO [C20, (2S,3S)-2-amino-1,3-icosanediol]	0.9
CCCCCCCCCCCCCCCC[C@H](O)[C@@H](N)CO [C19, (2S,3S)-2-amino-1,3-nonadecanediol]	0.5
CCCCCCCCCCCCCC[C@H](O)[C@@H](N)CO [C17, (2S,3S)-2-amino-1,3-heptadecanediol]	0.43
CCCCCCCCCCCC[C@H](O)[C@@H](N)CO [C15]	0.5
CCCCCCCCCCCCCCC[C@H](O)[C@@H](N)CO [C18, (2S,3S)-2-amino-1,3-octadecanediol, reference compound]	0.2
CCCCCCCCCCCCCCCCCC[C@H](O)[C@@H](N)CO [C21]	1.6
CCCCCCCCC[C@H](O)[C@@H](N)CO [C12]	0.7
CCCCCCCCCCC[C@H](O)[C@@H](N)CO [C14]	1.0

---

Measured Fa accompanies every entry in the list below.
Test system: COG-LL-317 acute lymphoblastic leukemia cell line
Procedure summary: DIMSCAN cytotoxicity, fenretinide + L-threo-sphinganines 3:1 (Example B20)
Type: cell-based, human
Setup conditions: 4-HPR 3 μM + L-threo-sphinganine 1 μM

Compound	System under test	Fa
CCCCCCCCCCCCCCC[C@H](O)[C@@H](N)CO [C18, (2S,3S)-2-amino-1,3-octadecanediol, reference compound]	COG-LL-317 acute lymphoblastic leukemia cell line	0.998
CCCCCCCCCCCCCCCC[C@H](O)[C@@H](N)CO	COG-LL-317 acute lymphoblastic leukemia cell line	0.9980
CCCCCCCCCCCCCC[C@H](O)[C@@H](N)CO	COG-LL-317 acute lymphoblastic leukemia cell line	0.993
CCCCCCCCCCCCCCCCC[C@H](O)[C@@H](N)CO	COG-LL-317 acute lymphoblastic leukemia cell line	0.9999

---

System: NCI-H-1792 lung adenocarcinoma cell line
Procedure summary: DIMSCAN cytotoxicity, fenretinide + L-threo-sphinganines 3:1 (Example B12)
Format: cell-based, human
Setup conditions: 4-HPR 9 μM + L-threo-sphinganine 3 μM, 96 h
Quantity kind: Fa (fraction affected)

Molecule	Quantity kind	Numeric readout
CCCCCCCCCCCCCCCC[C@H](O)[C@@H](N)CO	Fa (fraction affected)	0.993
CCCCCCCCCCCCCC[C@H](O)[C@@H](N)CO	Fa (fraction affected)	0.993
CCCCCCCCCCCCCCC[C@H](O)[C@@H](N)CO [C18, (2S,3S)-2-amino-1,3-octadecanediol, reference compound]	Fa (fraction affected)	0.999
CCCCCCCCC[C@H](O)[C@@H](N)CO	Fa (fraction affected)	0.975
CCCCCCCCCCCCCCCCC[C@H](O)[C@@H](N)CO	Fa (fraction affected)	0.998

---

System: OE-33 esophageal adenocarcinoma cell line
Procedure summary: DIMSCAN cytotoxicity, fenretinide + L-threo-sphinganines 3:1 (Example B19)
Format: cell-based, human
Setup conditions: 4-HPR 1.5 μM + L-threo-sphinganine 0.5 μM

Smiles	System under test	Fa
CCCCCCCCCCCCCCCC[C@H](O)[C@@H](N)CO	OE-33 esophageal adenocarcinoma cell line	0.299
CCCCCCCCC[C@H](O)[C@@H](N)CO	OE-33 esophageal adenocarcinoma cell line	0.376
CCCCCCCCCCCCCC[C@H](O)[C@@H](N)CO	OE-33 esophageal adenocarcinoma cell line	0.376
CCCCCCCCCCCCCCCCC[C@H](O)[C@@H](N)CO	OE-33 esophageal adenocarcinoma cell line	0.255
